# ASSAYED SYSTEM: T1, HLA-A*02:01 (human)
# T1 construct: recombinant MHC class I molecule incubated with the synthetic peptide (REVEAL, ProImmune)
# TEST: REVEAL MHC-peptide binding assay, recombinant HLA
Below, each of the binders is paired with its reported In Vitro Score value.

Some binders with recorded In Vitro Score:
VAFIIFWVA (synthetic 9-mer variant; the entry already carries the change) : 28.5 % of positive control peptide
WVQRGAKKL (synthetic 9-mer variant; the entry already carries the changes) : 3 % of positive control peptide

Supply reported In Vitro Score belonging to this binder: IIFWVKRGH (synthetic 9-mer variant; the entry already carries the change)
5.3 % of positive control peptide

Supply reported In Vitro Score belonging to this binder: AFIIFWVKR (synthetic 9-mer of the CD28-4-1BB junction; mutation: none)
0.5 % of positive control peptide

Each recorded value in this set is attributed to patent US20200297760A1.
